Reference source for all entries: PubChem BioAssay AID1996

# test_conditions: buffer; pH 7.4; 200.0 µM
reported_endpoint: solubility kinetic

INSERT INTO results (compound, reported_measurement) VALUES
  ('CCOC(=O)c1c(C)[nH]c(C)c1S(=O)(=O)N1CCCCC1', '> 47.2 µg/mL'),
  ('CN(C)CCCNC(=O)c1cc(C(=O)c2ccc(F)cc2)c[nH]1', '> 47.6 µg/mL'),
  ('CCOC(=O)c1cc(NC(=O)/C=C\C(=O)O)ccc1Cl', '> 44.7 µg/mL'),
  ('COCCn1c(SCC(=O)NCCCN2CCCC2=O)nc2ccccc2c1=O', '> 62.8 µg/mL'),
  ('O=C(COC(=O)c1ccccc1Cl)NCc1ccco1', '> 44.1 µg/mL');

For this compound ( CC(NC(=O)Cn1cccc1)c1ccccc1 (stereo unspecified) ), measured solubility kinetic is > 34.2 µg/mL

* * *

# test_conditions: buffer; pH 7.4; 200.0 µM
reported_endpoint: solubility kinetic

Example results:
INSERT INTO measurements (molecule, reported_measurement) VALUES
  ('CCO/N=C/C1=C(O)C(C(=O)OC)C(C)(C)CC1=O (stereo not drawn)', '> 0.0404 mg/mL'),
  ('COc1ccc2nc(SCC(=O)NC3CCCC3)c(C)cc2c1', '< 0.0004 mg/mL'),
  ('O=C(CCCC(=O)c1ccccc1)NCCc1ccccc1', '> 0.0443 mg/mL'),
  ('CCOc1ccccc1Nc1nnc(SCC(=O)NCC2CCCO2)s1 (stereo not drawn)', '> 0.0592 mg/mL'),
  ('Cc1cc(C(=O)N2CCC(C(=O)O)CC2)c(C)o1', '> 0.0377 mg/mL');

Entry C=CCN(CC=C)C(=S)Nc1ccc2nsnc2c1 ; solubility kinetic = > 0.0436 mg/mL

The measured solubility kinetic associated with O=C(O)c1ccc2c(c1)C(=O)N(Cc1ccco1)C2=O reads > 0.0407 mg/mL

# solubility kinetic of Cc1cc(=O)oc(C)c1C(=O)Nc1cccnc1Cl = > 0.0418 mg/mL

* * *

Reported solubility kinetic by item:
# test_conditions: buffer; pH 7.4; 200.0 µM

Check out these entries, answers already filled in.
INSERT INTO measurements (compound, reported_endpoint, reported_measurement) VALUES
  ('Cc1cc2oc(=O)cc(CN(C)Cc3ccccc3Cl)c2cc1C', 'solubility kinetic', '< 0.7 µg/mL'),
  ('CCC(C)NC(=O)CN1C(=O)C(CC)Sc2ccccc21 (stereo not given)', 'solubility kinetic', '> 46 µg/mL'),
  ('CC1CC(=O)Nc2cc([N+](=O)[O-])ccc2N1 (stereo not given)', 'solubility kinetic', '> 33.2 µg/mL'),
  ('CCN(CC(=O)NCc1cccs1)C(=O)c1ccc(C)o1', 'solubility kinetic', '> 46 µg/mL');

Shifting focus to the compound that follows.
CC12COC3(C(=O)Nc4ccccc4)CC1CCC32C (stereo not given) yielded solubility kinetic of > 40.7 µg/mL

* * *

# test_conditions: buffer; pH 7.4; 200.0 µM
Each entry below carries its recorded solubility kinetic.

Please review the entries below; each comes with its answer.
INSERT INTO results (molecule, reported_endpoint, reported_measurement) VALUES
  ('Cc1ccc(NS(=O)(=O)c2ccc(Cl)nc2)c(C)c1', 'solubility kinetic', '> 0.0445 mg/mL'),
  ('O=C(COc1ccc(Br)cc1)OCC(=O)N1CCOCC1', 'solubility kinetic', '> 0.0537 mg/mL'),
  ('O=C(O)C1CCN(S(=O)(=O)c2cccs2)CC1', 'solubility kinetic', '> 0.0413 mg/mL'),
  ('CCC1CCCCN1C(=O)c1ccc([N+](=O)[O-])o1 (centres undefined)', 'solubility kinetic', '> 0.0378 mg/mL'),
  ('Cc1ccc(NC(=O)CCN2CCC(C)CC2)cc1.Cl', 'solubility kinetic', '> 0.0445 mg/mL'),
  ('CCOC(=O)N1CCN(C(=O)Nc2ccccc2)CC1', 'solubility kinetic', '> 0.0416 mg/mL'),
  ('CC(=O)Nc1ccc(SCc2c(C)noc2C)cc1', 'solubility kinetic', '> 0.0415 mg/mL'),
  ('COc1ccc(NC(=O)CS(=O)c2cccc(Cl)c2)cc1 (centres undefined)', 'solubility kinetic', '> 0.0486 mg/mL');

According to the records, this molecule O=C(NCCc1ccccc1)C1CC(=O)N(C2CCCCC2)C1 (centres undefined) displays solubility kinetic of > 0.0472 mg/mL

* * *

# test_conditions: buffer; pH 7.4; 200.0 µM
# solubility kinetic annotations

INSERT INTO results (molecule, reported_measurement) VALUES
  ('O=C1CCC([N+](=O)[O-])C(c2ccccc2Br)N1 (configuration not stated)', '> 44.9 µg/mL'),
  ('CCCCn1c(CCl)nc2cc(S(=O)(=O)N3CCOCC3)ccc21', '> 55.8 µg/mL'),
  ('CCOC(Cn1ccc(=O)[nH]c1=O)OCC', '> 34.2 µg/mL');

Data point: Cc1ccc(NC(=O)CCN2C(=O)OC(C)(C)C2(C)O)cc1 (configuration not stated) ; solubility kinetic = 34 µg/mL

# molecule CN(C)C(=O)c1cc(C(=O)c2ccc(F)cc2Cl)c[nH]1 ; its solubility kinetic = > 44.2 µg/mL

# solubility kinetic (molecule: Cc1ccccc1SCC(=O)NCC(c1ccc(F)cc1)N1CCOCC1 (configuration not stated) ) is > 58.3 µg/mL

solubility kinetic reported for this molecule O=C(COC(=O)C1CCC1)NCc1ccc(F)cc1 : > 39.8 µg/mL

* * *

# test_conditions: buffer; pH 7.4; 200.0 µM
# maps each entry to its solubility kinetic

// solved cases for solubility kinetic follow
INSERT INTO measurements (mol, reported_measurement) VALUES
  ('CC(=O)Oc1ccc(NC(=O)Cc2ccccc2)c(C(=O)O)c1', '> 47 µg/mL'),
  ('Cc1cc(C)c(C(=O)O)c(Cl)n1', '> 27.8 µg/mL'),
  ('CCCCNC(=O)COC(=O)c1ccc(F)cc1Cl', '> 43.2 µg/mL'),
  ('O=C1CN(S(=O)(=O)c2ccc(F)cc2)c2ccccc2N1', '> 45.9 µg/mL');

Entry Cc1ccc(C23CC4CC(CC(C(=O)NCC(=O)O)(C4)C2)C3)cc1 , solubility kinetic reported as > 49.1 µg/mL

* * *

Listing of recorded solubility kinetic by entry.
# test_conditions: buffer; pH 7.4; 200.0 µM

INSERT INTO results (molecule, reported_endpoint, reported_measurement) VALUES
  ('O=C(OCC(=O)N1CCN(C(=O)c2ccco2)CC1)c1c(Cl)cccc1Cl', 'solubility kinetic', '> 61.7 µg/mL'),
  ('CC(NC(=O)CN(c1ccc(Br)cc1)S(C)(=O)=O)c1ccccc1 (centres undefined)', 'solubility kinetic', '> 61.7 µg/mL'),
  ('COc1cc(C(=O)OCCNC(=O)c2cccnc2)cc(OC)c1OC.Cl', 'solubility kinetic', '> 59.5 µg/mL');

// switching to the query molecule
solubility kinetic measured on O=C(O)C1=NN(c2ccccc2)C(=O)C1 = > 30.6 µg/mL

* * *

Overview of reported solubility kinetic across a group of compounds:
# test_conditions: buffer; pH 7.4; 200.0 µM

Use the examples below as a reference point.
INSERT INTO measurements (compound, reported_measurement) VALUES
  ('CC(=O)Nc1ccc(S(=O)(=O)N2CCCC2)cc1', '> 40.2 µg/mL'),
  ('O=C(O)C1CCN(C(=O)CCc2ccccc2)CC1', '> 39.2 µg/mL'),
  ('Cc1cc(=O)n(Cc2ccccc2)c2c(C)cccc12', '< 0.6 µg/mL');

Memo: O=S(=O)(c1ccc(F)cc1)N1CCCCC1c1cccnc1 (stereo unspecified) , reported solubility kinetic: > 48.1 µg/mL

Please fill in: solubility kinetic reported for CCOc1cc(N2CCOCC2)c(OCC)cc1NC(=O)c1cc(S(=O)(=O)N2CCOCC2)ccc1C = > 80 µg/mL

Documented solubility kinetic of COc1cccc(N(C(C)=O)C2=NCCCS2)c1 : > 39.7 µg/mL

* * *

In this section, each of the molecules is paired with its reported solubility kinetic.
# test_conditions: buffer; pH 7.4; 200.0 µM

Example results:
INSERT INTO assay_data (molecule, reported_measurement) VALUES
  ('O=C(OCc1cccc([N+](=O)[O-])c1)c1cc2ccccc2oc1=O', '< 0.7 µg/mL'),
  ('Cl.NCCNc1ccc([N+](=O)[O-])cc1', '> 32.6 µg/mL'),
  ('CCn1c(C(O)c2cc(OC)ccc2OC)nc2ccccc21 (stereo not drawn)', '> 46.9 µg/mL'),
  ('Cc1cccc(N/C=C/C(=O)c2ccc(Cl)cc2)c1', '< 0.6 µg/mL'),
  ('CC(OC(=O)c1cccs1)C(=O)NC1CC1 (stereo not drawn)', '> 35.9 µg/mL'),
  ('O=C(NC1CCCCCC1)c1ccc[nH]c1=S', '> 37.6 µg/mL'),
  ('CC1(C)C2C/C(=N\O)C(C)(/[N+]([O-])=C/c3cccc([N+](=O)[O-])c3)CC21 (stereo not drawn)', '45.2 µg/mL'),
  ('N#Cc1cc2cc3ccccc3nc2n2c(=O)c3ccccc3nc12', '< 0.2 µg/mL'),
  ('CN(C(=O)CN1C(=O)c2ccccc2S1(=O)=O)C1CCCCC1', '> 50.5 µg/mL'),
  ('Cc1ccc(-n2c(C)nn(CC#N)c2=O)cc1', '> 34.2 µg/mL');

The recorded solubility kinetic for entry COc1ccc(CCC(C)NCc2ccc(C(F)(F)F)cc2)cc1 (stereo not drawn) equals 30.5 µg/mL

So, CCC(OC(=O)c1ccco1)C(=O)NC1CCCC1 (stereo not drawn) ? Its solubility kinetic was > 39.8 µg/mL

Form field solubility kinetic, entry CSCCC(NC(=O)c1ccco1)C(=O)NC1CCC(C)CC1 (stereo not drawn) : > 50.8 µg/mL

Record COc1ccc(CCN=Cc2ccccc2O)cc1OC . Reported solubility kinetic: > 42.8 µg/mL

Data point: O=C(O)CC1(CC(=O)NCc2ccncc2)CCCCC1 ; solubility kinetic = > 43.6 µg/mL
